Entries and their pIC50
- System: HCT-116
- ASSAY EXPLANATION: Cytotoxicity against human HCT116 cells by SRB assay
- Format: functional, cell-based
Just the number, please; pIC50 means minus log10 of the concentration in mol/L.

Consider the following illustrative entries.
INSERT INTO measurements (compound, experimental_system, assay_readout, measured_number) VALUES
  ('COc1ccc2c3c(c4cc(OC)c(OC)cc4c2c1)C[C@H]1CCCN1C3 [(-)-ANTOFINE]', 'HCT-116', 'pIC50', 8.00),
  ('COc1ccc2c3c(c4cc(OC(C)C)c(OC)cc4c2c1)CC1CCCN1C3 (centres undefined)', 'HCT-116', 'pIC50', 6.11),
  ('COc1ccc2c3c(c4cc5c(cc4c2c1)OCO5)CC1CCCN1C3 (centres undefined)', 'HCT-116', 'pIC50', 6.44);

Query compound follows.
Ask: So what's the measured pIC50 for this one? COc1ccc2c3c(c4cc(O)c(OC)cc4c2c1)CC1CCCN1C3 (centres undefined)
Reply: 7.17
